assayComment: in vitro
conditionLabel: human
attributeMeasured: CC50 at 72 h (µM)
Reply with just the number (in µM).

For orientation, consider the following solved cases.
# moleculeSmiles, measurementUnits, CC50 at 72 h
records = [
    ("O=S(=O)(F)Oc1ccc(OCc2ccc(-n3cncn3)cc2)cc1Cl", "µM", 5.8),
    ("N#Cc1ncn(-c2cc(F)c(COc3ccc(OS(=O)(=O)F)cc3)c(F)c2)n1", "µM", 10.3),
]

Task item: Give CC50 at 72 h for O=S(=O)(F)Oc1ccc(OCc2ccc(-n3cncn3)c(F)c2F)cc1
Reply: 22.4

###

Tested on: Mtb H37Rv
assayComment: MIC determination in Mtb H37Rv, Microdilution Alamar Blue Assay (MABA)
Assay type: cell-based, Mycobacterium tuberculosis
conditionLabel: Mtb H37Rv, MABA, 7 days
attributeMeasured: MIC (µM)
Reply with just the number (in µM).

For orientation, consider the following solved cases.
# compound, experimentalSystem, MIC, µM
measured = [
    ("N#Cc1cc(-n2cncn2)cc(F)c1COc1ccc(OS(=O)(=O)F)cc1 [Compound 3j]", "Mtb H37Rv", 5),
    ("O=S(=O)(F)Oc1ccc(OCc2c(F)cc(-c3nnc[nH]3)cc2F)cc1 [Compound 19a]", "Mtb H37Rv", 0.9),
    ("O=S(=O)(F)Oc1ccc(OCc2c(F)cc(-c3cnoc3)cc2F)cc1 [Compound 19j]", "Mtb H37Rv", 0.78),
]

# context switch: different compound, same MIC
Task item: Give MIC for O=S(=O)(F)Oc1ccc(OCc2c(F)cc(-c3ncon3)cc2F)cc1 [Compound 19i]
Reply: 0.62
